Examples of compounds with documented IC50 follow.
- targetEntity: HDAC1 (Homo sapiens (Human), UniProt Q13547)
- Sequence (Q13547 whole entry): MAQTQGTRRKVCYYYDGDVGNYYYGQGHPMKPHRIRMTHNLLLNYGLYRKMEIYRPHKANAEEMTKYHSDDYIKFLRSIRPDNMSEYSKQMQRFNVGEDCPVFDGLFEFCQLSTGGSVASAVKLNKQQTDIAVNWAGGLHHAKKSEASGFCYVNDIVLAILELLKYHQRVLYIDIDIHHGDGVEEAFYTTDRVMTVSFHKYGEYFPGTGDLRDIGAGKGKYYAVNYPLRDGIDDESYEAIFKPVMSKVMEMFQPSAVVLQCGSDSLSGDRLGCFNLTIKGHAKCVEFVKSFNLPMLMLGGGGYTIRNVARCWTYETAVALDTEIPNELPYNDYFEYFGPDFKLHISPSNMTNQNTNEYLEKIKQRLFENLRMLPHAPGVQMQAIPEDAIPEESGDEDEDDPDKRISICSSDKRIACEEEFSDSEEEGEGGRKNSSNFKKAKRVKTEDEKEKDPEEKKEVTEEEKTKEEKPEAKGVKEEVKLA
Value expressed in nM; do not type the unit.

Here's what some known entries look like.
| compound | unitDescriptor | IC50 |
| --- | --- | --- |
| O=C(CC1CCS(=O)(=O)C1)N(Cc1ccc(-c2noc(C(F)(F)F)n2)cn1)c1cccc(F)c1 (racemic) | nM | 410 |
| O=C1CCC(c2ccccc2F)N1c1ccc(-c2noc(C(F)(F)F)n2)cc1F (racemic) | nM | 570 |

Just so you know, measured IC50 for `CN1CCN(c2ccc(-c3noc(C(F)(F)F)n3)cn2)[C@@H](c2ccccc2)C1` came out at 360

Just so you know, measured IC50 for `O=C1CC[C@@H](CO)N1c1ccc(-c2noc(C(F)(F)F)n2)c(F)c1` came out at 380

Just so you know, measured IC50 for `FC(F)(F)c1nc(-c2ccc(COc3ccc(Cl)nc3)nc2)no1` came out at 2400

Just so you know, measured IC50 for CC1(Cc2ccc(-c3noc(C(F)(F)F)n3)cc2)C(=O)Nc2ccc(F)cc21 (centres unmarked) [Example 348] came out at 2400

Just so you know, measured IC50 for `OCc1cc(NCc2ccc(-c3noc(C(F)(F)F)n3)cn2)ccc1F` came out at 520

Just so you know, measured IC50 for `FC(F)(F)c1nc(-c2ccnc(OC[C@@H]3C[C@@H]3c3ncccn3)c2)no1` came out at 2600

Values compiled from patent US11066396B2.
